Experiment: chemical genetic growth profiling, strain panel (AID 1159580);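 note: tested at 20 µM; growth read once vehicle control cultures reached saturation at 30 °C; lower values mean less growth of the strain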
Details: S. cerevisiae deletion strains, growth OD, locus YFR019W, strain FAB1
The campaign covered roughly 5,500 compounds. About 2,000 (36%) were called active. Roughly 18% stayed inconclusive and do not appear here. Cut-off read from the data, not from the text of the source: active = normalized growth mostly below about 0.91 (no sharp cut-off); inconclusive = no clear call, values can overlap the other calls; inactive = mostly above about 0.92. The list shows a part of the results.
Write down one outcome, taken from active, inactive

Answered examples (5):
O=C(NCc1ccc(Cl)c(Cl)c1)c1cccnc1OCC(F)(F)F = inactive
CC(C)c1ccc(COC(=O)Nc2ccc(CSc3ccc(Cl)cc3)o2)cc1 = inactive
Fc1cc(I)ccc1Nc1ccnc2cc(Cl)ccc12 = inactive
CC(C)(C)c1ccc(C(=N)SC(C(=O)C(F)(F)F)c2ccccc2)cc1 (stereo unspecified) = inactive
COc1cc(Cl)ccc1N/N=C(/C#N)C(N)=O = active

API: the following record is the query input.
### Prompt Please let me know the test result on file for O=C(/C=C/c1ccc2c(c1)OCO2)Nc1ccc(Br)cc1 .
### Response inactive

src = PubChem BioAssay AID1159580
